Biological target: Bile acid receptor (Homo sapiens, UniProt Q96RI1)
Sequence (Q96RI1 whole entry, the tested form may be a part): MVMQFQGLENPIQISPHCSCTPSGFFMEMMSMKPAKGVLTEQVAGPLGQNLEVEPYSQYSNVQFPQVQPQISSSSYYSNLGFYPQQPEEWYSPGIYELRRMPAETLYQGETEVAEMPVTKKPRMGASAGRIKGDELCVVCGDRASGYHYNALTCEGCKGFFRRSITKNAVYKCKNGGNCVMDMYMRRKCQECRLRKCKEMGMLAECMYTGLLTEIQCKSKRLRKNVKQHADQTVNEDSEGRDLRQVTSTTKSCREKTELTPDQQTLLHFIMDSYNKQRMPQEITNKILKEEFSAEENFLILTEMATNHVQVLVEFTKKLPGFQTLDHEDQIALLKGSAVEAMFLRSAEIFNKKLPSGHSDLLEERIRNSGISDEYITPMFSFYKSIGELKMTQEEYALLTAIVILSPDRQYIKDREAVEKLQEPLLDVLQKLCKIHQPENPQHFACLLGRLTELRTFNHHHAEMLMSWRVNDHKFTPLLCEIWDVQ
Test: Inhibition of GW4064-induced fluorecein-labeled SRC2-2 coactivator recruitment in GST-tagged FXR LBD (unknown origin) by Lanthascreen TR-FRET assay
Class (by IC50) -- bin 1 (below 40 µM), bin 2 (40 µM to below 100 µM), bin 3 (100 µM or more)

CC(C)C[C@@H](c1nc2ccc(C(=O)O)cc2n1C)N1CCN(c2ccc(Oc3ccccc3)cc2)C1=O: bin 1

For CC(C)C[C@@H](c1nc2ccc(C(=O)O)cc2n1C)N1C(=O)CN(c2ccc(OC3CCCCC3)cc2)C1=O , which IC50 bin applies?
bin 3

Again, but for COc1ccc(Oc2ccc(N3CC(=O)N([C@@H](CC(C)C)c4nc5ccc(C(=O)O)cc5n4C)C3=O)cc2)cc1
bin 2

Again, but for CC(C)C[C@@H](c1nc2ccc(C(=O)O)cc2n1C)N1C(=O)CN(c2ccc(F)cc2)C1=O
bin 3

Again, but for Cc1ccc2nc([C@H](CC3CCCCC3)N3C(=O)CN(c4ccc(Oc5ccccc5)cc4)C3=O)n(C)c2c1
bin 3

Again, but for Cn1c([C@@H](Cc2ccccc2)N2C(=O)CN(c3ccc(Oc4ccccc4)cc3)C2=O)nc2ccc(C(=O)O)cc21
bin 2

Just for reference, ChEMBL document CHEMBL3992546 is where these values come from.
